Tested on: SN12C renal
Test: NCI tumour cell line growth inhibition, 48 h
property: TGI

1. O=C1C(Cl)C(c2cc3cc(Br)ccc3nc2Cl)N1c1ccc(Cl)cc1 (stereo not drawn) ... 8.8 µM
2. O=c1c2ccccc2c2ccccc2c(=O)n1Cc1ccc2c(c1)OCO2 ... > 100 µM
3. C[C@]12CC[C@H](O)CC1=CC[C@@H]1[C@@H]2CC[C@]2(C)C(=N/O)/C(=C/c3ccc([N+](=O)[O-])cc3)C[C@@H]12 ... 7.14 µM
4. O=c1[nH]c(-n2[nH]c3c(c2=O)CCCC3)nc(O)c1-c1ccccc1 ... > 100 µM
5. C=CCNS(=O)(=O)c1ncnc2nc[nH]c12 ... > 100 µM
6. O=c1[nH]cnc2c1CCCN2 ... > 100 µM
7. O=c1[nH]c(=O)n(C2CC(O)C(CO)O2)cc1OCC1CCCCC1 (stereo not drawn) ... > 100 µM
8. CC(=O)OCC(OC(C)=O)C(OC(C)=O)C(OC(C)=O)C(C=NN(C(C)=O)S(=O)(=O)c1ccc(/C=C2\NC(=O)NC2=O)cc1)OC(C)=O (stereo not drawn) ... > 100 µM
9. COC(=O)c1ccc(Cl)cc1NC(=O)C1CCCCC1 ... > 100 µM
10. NC1=NCCN1CC(=O)O ... > 10000 µM
11. COc1cc(/C=C/C(=O)CC(=O)/C=C/c2ccc(O)c(OC)c2)ccc1O ... 25.1 µM
12. CCOP(=O)(OCC)C(C(=O)OC)C(=O)C(=O)Nc1c(C)cc(Br)cc1C (stereo not drawn) ... > 100 µM
13. CCN(CC)CCCC(C)N=c1cc(Nc2cc(=NC(C)CCCN(CC)CC)c3cc(OC)ccc3o2)oc2ccc(OC)cc12 (stereo not drawn) ... 11.8 µM
